assay.comment: Fraction unbound in beagle dog plasma
Assay type: ADME, cell-free, Canis lupus familiaris
assay.metric: fraction unbound
Enter a number only.

Exercise: Can you share its fraction unbound? I mean this compound: CC(C)C[C@@H]1NC(=O)[C@@H](Cc2ccccc2)NC(=O)[C@H](CCN)NC(=O)[C@@H](NC(=O)[C@H](CN)NC(=O)[C@@H](NC(=O)[C@H](CCN)NC(=O)c2ccc(=O)n(-c3ccccc3)c2)[C@@H](C)O)CCNC(=O)[C@H]([C@@H](C)O)NC(=O)[C@H](CCN)NC(=O)[C@H](CCN)NC1=O
Solution: 0.58

* * *

assay.comment: Cytotoxicity against human RPTEC after 24 hrs by LDH assay
Type: cell-based
reported.conditions: RPTEC cells, read-out: TC50
Where a SMILES comes first, the peptide text is derived from it. Bridges are numbered along the chain shown (N, C = ends). [ ]: non-standard residue; d: D form. The star is where a group is joined. X12 = O=C(c1ccc(Cl)c(-c2ccccc2)c1)*; X15 = N#Cc1ccc(C(=O)*)cc1-c1ccccc1; X4 = O=C(c1ccnc(-c2ccc(Cl)cc2)c1)*; X9 = COc1ccc(-c2cc(C(=O)*)ccn2)cc1; X8 = N#Cc1cc(C(=O)*)ccc1-c1ccccc1; X1 = O=C(c1cnnc(-c2ccccc2)c1)*; Dab = NCC[C@H](N)C(=O)O; Dap = NC[C@H](N)C(=O)O
assay.metric: CC50 at 24 h (µM)
Entry rule: numbers only, all in µM.

Exercise: What value of measured CC50 at 24 h is listed for COc1ccc(-c2cc(C(=O)N[C@@H](CCN)C(=O)N[C@H](C(=O)N[C@@H](CN)C(=O)N[C@H]3CCNC(=O)[C@H]([C@@H](C)O)NC(=O)[C@H](CCN)NC(=O)[C@H](CCN)NC(=O)[C@H](CC(C)C)NC(=O)[C@@H](Cc4ccccc4)NC(=O)[C@H](CCN)NC3=O)[C@@H](C)O)ccn2)cc1 (X9-[Dab]T[Dap][Dab][Dab][dF]L[Dab][Dab]T; lactam 4-C) ?
Solution: 78

Exercise: Please look up its CC50 at 24 h: CC(C)C[C@@H]1NC(=O)[C@@H](Cc2ccccc2)NC(=O)[C@H](CCN)NC(=O)[C@@H](NC(=O)[C@H](CN)NC(=O)[C@@H](NC(=O)[C@H](CCN)NC(=O)c2ccc(Cl)c(-c3ccccc3)c2)[C@@H](C)O)CCNC(=O)[C@H]([C@@H](C)O)NC(=O)[C@H](CCN)NC(=O)[C@H](CCN)NC1=O (X12-[Dab]T[Dap][Dab][Dab][dF]L[Dab][Dab]T; lactam 4-C)
Solution: 14

Exercise: Which measured CC50 at 24 h value corresponds to CC(C)C[C@@H]1NC(=O)[C@@H](Cc2ccccc2)NC(=O)[C@H](CCN)NC(=O)[C@@H](NC(=O)[C@H](CN)NC(=O)[C@@H](NC(=O)[C@H](CCN)NC(=O)c2ccc(-c3ccccc3)c(C#N)c2)[C@@H](C)O)CCNC(=O)[C@H]([C@@H](C)O)NC(=O)[C@H](CCN)NC(=O)[C@H](CCN)NC1=O (X8-[Dab]T[Dap][Dab][Dab][dF]L[Dab][Dab]T; lactam 4-C) ?
Solution: 32

Exercise: What does the data say about its CC50 at 24 h? Entry: CC(C)C[C@@H]1NC(=O)[C@@H](Cc2ccccc2)NC(=O)[C@H](CCN)NC(=O)[C@@H](NC(=O)[C@H](CN)NC(=O)[C@@H](NC(=O)[C@H](CCN)NC(=O)c2cnnc(-c3ccccc3)c2)[C@@H](C)O)CCNC(=O)[C@H]([C@@H](C)O)NC(=O)[C@H](CCN)NC(=O)[C@H](CCN)NC1=O (X1-[Dab]T[Dap][Dab][Dab][dF]L[Dab][Dab]T; lactam 4-C)
Solution: 84

Exercise: Quick one: CC50 at 24 h of CC(C)C[C@@H]1NC(=O)[C@@H](Cc2ccccc2)NC(=O)[C@H](CCN)NC(=O)[C@@H](NC(=O)[C@H](CN)NC(=O)[C@@H](NC(=O)[C@H](CCN)NC(=O)c2ccc(C#N)c(-c3ccccc3)c2)[C@@H](C)O)CCNC(=O)[C@H]([C@@H](C)O)NC(=O)[C@H](CCN)NC(=O)[C@H](CCN)NC1=O (X15-[Dab]T[Dap][Dab][Dab][dF]L[Dab][Dab]T; lactam 4-C) ?
Solution: 39

Exercise: State the recorded CC50 at 24 h for this entry: CC(C)C[C@@H]1NC(=O)[C@@H](Cc2ccccc2)NC(=O)[C@H](CCN)NC(=O)[C@@H](NC(=O)[C@H](CN)NC(=O)[C@@H](NC(=O)[C@H](CCN)NC(=O)c2ccnc(-c3ccc(Cl)cc3)c2)[C@@H](C)O)CCNC(=O)[C@H]([C@@H](C)O)NC(=O)[C@H](CCN)NC(=O)[C@H](CCN)NC1=O (X4-[Dab]T[Dap][Dab][Dab][dF]L[Dab][Dab]T; lactam 4-C)
Solution: 30

The reported numbers originate from ChEMBL document CHEMBL2396592.
